# System: EKO-35 acrBD408A
# Type: cell-based, Escherichia coli
# condition: EKO-35 acrBD408A; NMP + antibiotic
FICI listing for selected compounds.
Simply state the number, no unit and no words.

# compound, test_readout, observed_value
data = [
    ("CC[C@H]1OC(=O)[C@H](C)[C@@H](O[C@H]2C[C@@](C)(OC)[C@@H](O)[C@H](C)O2)[C@H](C)[C@@H](O[C@@H]2O[C@H](C)C[C@H](N(C)C)[C@H]2O)[C@](C)(O)C[C@@H](C)C(=O)[C@H](C)[C@@H](O)[C@]1(C)O [erythromycin]", "FICI", 0.500),
    ("CC(=O)NC[C@H]1CN(c2ccc(N3CCOCC3)c(F)c2)C(=O)O1 [linezolid]", "FICI", 0.516),
    ("CC[n+]1c(-c2ccccc2)c2cc(N)ccc2c2ccc(N)cc21 [ethidium bromide]", "FICI", 0.750),
    ("Cc1onc(-c2ccccc2)c1C(=O)N[C@@H]1C(=O)N2[C@@H]1SC(C)(C)[C@@H]2C(=O)O [oxacillin]", "FICI", 2.000),
]

Request: Could you tell me which FICI is on file for CC(=O)O[C@H]1C[C@@]2(C)[C@@H](C[C@@H](O)[C@H]3[C@@]4(C)CC[C@@H](O)[C@@H](C)[C@@H]4CC[C@@]32C)/C1=C(\CCC=C(C)C)C(=O)O [fusidic acid] ?
Result: 0.500
